This listing pairs binders with measured Kd.
- systemName: T1, His-tagged human HtrA1 protease domain (human, UniProt Q92743 161-367)
- T1 construct: His-tagged protease domain; also called huHtrA1-PD-His; huHtrA1-PD
- T1 sequence (Q92743 other isoform, or with tags, fused parts or gaps limits assumed): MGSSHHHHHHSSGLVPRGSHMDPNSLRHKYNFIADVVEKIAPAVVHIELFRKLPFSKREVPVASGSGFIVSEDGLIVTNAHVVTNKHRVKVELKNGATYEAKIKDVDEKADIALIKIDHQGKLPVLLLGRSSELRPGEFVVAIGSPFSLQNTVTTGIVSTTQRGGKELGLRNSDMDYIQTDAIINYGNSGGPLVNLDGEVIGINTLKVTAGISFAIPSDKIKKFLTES
- protocolSummary: SPR (BIACORE T200), huHtrA1-PD-His captured by anti-His, Fab injected
measuredEndpoint: Kd (pM)

binder="h15H6.v2 variant HC7 (HC-A58F) Fab (Fab, V domains shown, Fab-Flag tag fusion from 293T cells) VH: EVQLVQSGAEVKKPGASVKVSCKASGYTFTDSEMHWVRQAPGQGLEWIGGVDPETDGAFYNQKFKGRATITRDTSTSTAYLELSSLRSEDTAVYYCTRGYDYDYALDYWGQGTLVTVSS VL: DIQMTQSPSSLSASVGDRVTITCRASSSVNFIHWYQQKPGKAPKPLISATSNLASGVPSRFSGSGSGTDFTLTISSLQPEDFATYYCQQWSSNPWTFGQGTKVEIK" assayresult=611
binder="h15H6.v2 variant HC5 (HC-M34L) Fab (Fab, V domains shown, Fab-Flag tag fusion from 293T cells) VH: EVQLVQSGAEVKKPGASVKVSCKASGYTFTDSELHWVRQAPGQGLEWIGGVDPETDGAAYNQKFKGRATITRDTSTSTAYLELSSLRSEDTAVYYCTRGYDYDYALDYWGQGTLVTVSS VL: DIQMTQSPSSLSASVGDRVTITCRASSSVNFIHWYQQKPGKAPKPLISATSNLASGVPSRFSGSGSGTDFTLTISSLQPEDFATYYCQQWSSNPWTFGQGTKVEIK" assayresult=481
binder="h15H6.v2 variant HC8 (HC-Y100I) Fab (Fab, V domains shown, Fab-Flag tag fusion from 293T cells) VH: EVQLVQSGAEVKKPGASVKVSCKASGYTFTDSEMHWVRQAPGQGLEWIGGVDPETDGAAYNQKFKGRATITRDTSTSTAYLELSSLRSEDTAVYYCTRGYDYDIALDYWGQGTLVTVSS VL: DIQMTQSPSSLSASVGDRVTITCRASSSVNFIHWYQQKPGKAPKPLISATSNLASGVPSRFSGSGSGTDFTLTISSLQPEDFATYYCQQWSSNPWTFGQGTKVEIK" assayresult=603
binder="h15H6.v2 variant LC4 (LC-N53H) Fab (Fab, V domains shown, Fab-Flag tag fusion from 293T cells) VH: EVQLVQSGAEVKKPGASVKVSCKASGYTFTDSEMHWVRQAPGQGLEWIGGVDPETDGAAYNQKFKGRATITRDTSTSTAYLELSSLRSEDTAVYYCTRGYDYDYALDYWGQGTLVTVSS VL: DIQMTQSPSSLSASVGDRVTITCRASSSVNFIHWYQQKPGKAPKPLISATSHLASGVPSRFSGSGSGTDFTLTISSLQPEDFATYYCQQWSSNPWTFGQGTKVEIK" assayresult=517
binder="h15H6.v2 variant LC3 (LC-N31E) Fab (Fab, V domains shown, Fab-Flag tag fusion from 293T cells) VH: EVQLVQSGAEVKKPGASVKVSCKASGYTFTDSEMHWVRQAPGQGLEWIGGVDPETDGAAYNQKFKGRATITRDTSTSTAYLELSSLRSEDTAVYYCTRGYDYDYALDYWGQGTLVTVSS VL: DIQMTQSPSSLSASVGDRVTITCRASSSVEFIHWYQQKPGKAPKPLISATSNLASGVPSRFSGSGSGTDFTLTISSLQPEDFATYYCQQWSSNPWTFGQGTKVEIK" assayresult=480
